Assay overview: inhibition of 3D7 malaria parasite growth – strain 3D7 (AID 2306);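 note: 0% = DMSO wells and 100% = chloroquine plus artemisinin control wells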
Recorded conditions: P. falciparum 3D7 erythrocytic growth, LDH absorbance, 72 h; at 2 µM; stronger effect = higher value
Metric: growth inhibition (%)
The response must be a number in % with no trailing unit.

                                   compound             metric  assay_result
0  CN1CCN(CC(=O)Nc2ccc(-c3cccc(-c4nc5ccc(F)cc5[nH]4)c3)cc2)CC1  growth inhibition           100
1  CN(C)Cc1ccc(-c2cccc(NC(=O)c3ccc(Cl)cc3)c2)cc1  growth inhibition            94
2  CCN(CC)c1ccc(C=CC(=O)NCCN2CCC(N(C)C3CCCCC3C)CC2)cc1 (centres undefined)  growth inhibition            88
3  COc1ccc(OCC(=O)Nc2cc(-c3nc4ccccc4[nH]3)ccc2Cl)cc1  growth inhibition            94
4  COc1ccc(O)c(C(=O)c2cnc3c(c2)c(-c2ccc(F)cc2)c(C#N)c(=O)n3C)c1  growth inhibition            92

According to the records, this compound CC(C)c1sc(N2CCN(C)CC2)nc1C(=O)Nc1ccc(F)cc1C(F)(F)F displays growth inhibition of 101

According to the records, this compound Cc1cccc2[nH]c(-c3ccc(-c4ccc(CN5CCN(c6ccncc6)CC5)cc4)s3)nc12 displays growth inhibition of 102

According to the records, this compound Cc1cc(-c2ccc(CNCc3ccsc3)cc2)ccc1S(=O)(=O)NCCN1CCCC1 displays growth inhibition of 99

According to the records, this compound Cc1cccc2[nH]c(-c3ccc(-c4cccc(CNC(C)C)c4)s3)nc12 displays growth inhibition of 100

According to the records, this compound CCn1c(-c2cc(C)on2)nc2cnc(Oc3ccc(C(=O)N4CC(=O)N(C)C4C(C)(C)C)cc3)cc21 (centres undefined) displays growth inhibition of 81

According to the records, this compound Cc1cc(NC(=O)c2ccco2)ccc1OC1CCN(Cc2ccc(C#N)cc2)CC1 displays growth inhibition of 92

According to the records, this compound O=C(Cc1ccsc1)NCC(c1ccccc1Cl)c1c[nH]c2ccccc12 (centres undefined) displays growth inhibition of 86

According to the records, this compound Cc1noc(C)c1-c1ccc2c(Nc3ccccc3C(C)(C)C)c(C(=O)NC3CCCC3)cnc2c1 displays growth inhibition of 93

According to the records, this compound CN(C)CCOc1ccc2c(=O)cc(CCc3cccc(F)c3F)n(CC(=O)N(C)Cc3ccc(-c4ccc(C(F)(F)F)cc4)cc3)c2c1 displays growth inhibition of 90

----------
Assay overview: inhibition of 3D7 malaria parasite growth – strain 3D7 (AID 2306);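 note: 0% = DMSO wells and 100% = chloroquine plus artemisinin control wells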
Recorded conditions: P. falciparum 3D7 erythrocytic growth, LDH absorbance, 72 h; at 2 µM; stronger effect = higher value
Listed next: entries and their corresponding growth inhibition.
The response must be a number in % with no trailing unit.

>>> print(df.to_string())
                                   compound             metric  assay_result
0  Cc1cccc2[nH]c(-c3ccc(-c4cccc(CN5CCN(c6ccc(C#N)cn6)CC5)c4)s3)nc12  growth inhibition            85
1  CC(C)=CCc1c(-c2ccc(O)cc2O)oc2c3c(cc(O)c2c1=O)OC(C)(C)C=C3  growth inhibition            89
2  Cc1cc(CNCCCCCCNCc2cccc([N+](=O)[O-])c2)ccc1O  growth inhibition            90
3                CC(C)Cc1cnc2nc(N)nc(N)c2c1  growth inhibition            98

According to the records, this compound CN(C)CC(=O)Nc1ccc(Nc2nccc(NCC(O)c3ccccc3)n2)cc1 (configuration not stated) displays growth inhibition of 95

According to the records, this compound Oc1ccc(CCCc2cc(Oc3c(I)cc(CCc4ncc[nH]4)cc3I)ccc2O)cc1 displays growth inhibition of 95

According to the records, this compound Oc1ccc(CCNc2nc(NCCOc3ccccc3-c3ccccc3)nc(N3CCNCC3)n2)cc1 displays growth inhibition of 93

According to the records, this compound O=C(NCc1ccc(F)cc1)Nc1ccc(-c2cccc(-c3nc4ccc(C(F)(F)F)cc4[nH]3)c2)cc1 displays growth inhibition of 101

According to the records, this compound COc1ccc(CNc2nccc3ccc(-c4ccc(N)nc4)cc23)cc1 displays growth inhibition of 93

According to the records, this compound CCN(CC)CCCNc1ncc2c(-c3ccc(NC(=O)Nc4cc(C(F)(F)F)ccc4F)cc3)nn(C)c2n1 displays growth inhibition of 99

According to the records, this compound NC(=O)c1cnc2cc(-c3ccoc3)ccc2c1Nc1ccc(NC(=O)Nc2ccccc2Cl)cc1 displays growth inhibition of 100

According to the records, this compound COc1ccc(-c2nc3cccnc3n2CC(=O)Nc2c(C)cc(C)cc2C)c(OC)c1 displays growth inhibition of 91

According to the records, this compound CCCCCCCNCc1c(O)ccc2c(CNCCCCCCC)c(O)ccc12 displays growth inhibition of 100
